Assay: MM1S cell viability effects, profiling panel, calcein-AM fluorescence, 48 h, basal (AID 1165);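 further: viability of MM1S multiple myeloma cells under basal unstimulated conditions; test concentration not given here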
Conditions: higher = more signal
measuredMetric: z-score

Task: Which z-score is reported for this compound? "O=C(NN=C1C[C@@H](O)[C@@H](O)[C@@H]2[C@@H]3C(=O)N(c4ccc(F)cc4F)C(=O)[C@@H]3CC[C@@H]12)OCc1ccccc1"
Output: 0.655

Task: Could you share which z-score value was measured for "CC(C)=CCCC(C)=CCON=C1C[C@@H](O)[C@@H](O)[C@@H]2[C@@H]3C(=O)N(C[C@@H]4CCCO4)C(=O)[C@@H]3CC[C@@H]12" ?
Output: 0.182

Task: Name the recorded z-score for "CC[C@@H](c1ccccc1)n1c(=O)n2n(c1=O)[C@H]1[C@H](O)[C@@H]3O[C@@H]3C(=NOCC(C)C)[C@H]1CC2" .
Output: -0.288

Task: Recorded z-score of "O=C1[C@H]2[C@H]3[C@H](O)[C@H](O)CC(=NOCc4ccccc4)[C@@H]3CC[C@H]2C(=O)N1Cc1ccccc1" , please.
Output: 0.188

---

Assay: modulators of HCV replicon luciferase signal, primary screen, HCV replication inhibitor project, Huh7 cells, luciferase reporter (AID 1109);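 further: huh7 hepatoma cells harbouring a luciferase neomycin HCV replicon reporter; luciferase luminescence as measure of HCV replicon replication; test concentration not given here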
Conditions: 48 h, higher = more signal
Kindly supply the reported z-score values for the records listed here.

Task: Look up z-score: "C[C@H]1Cc2c(-c3ccccc3)nc3c(c2CO1)CN(CCOc1ccccc1)CC3"
Output: -0.56

Task: For the compound shown here, "CCOC(=O)CCN1C(=O)[C@H]2[C@H]3[C@H](O)[C@H](O)CC(=NNC(=O)OCc4ccc(OC)cc4)[C@@H]3CC[C@H]2C1=O" , give the reported z-score.
Output: -0.552

Task: Look up z-score: "CCCC[C@@H]1C[C@H]1[C@@H](NS(=O)(=O)c1cccc2cccnc12)c1ccc(-c2ccccc2)cc1"
Output: -0.122

Task: Which measured z-score value corresponds to "COC(=O)CC=C[C@H](C)[C@H](CO)NS(=O)(=O)c1ccc(C)cc1" ?
Output: -0.763

Task: What does the record list as z-score for "CCOC(=O)NN=C1C[C@@H](O)[C@@H](O)[C@@H]2[C@@H]3C(=O)N(C4CCCCC4)C(=O)[C@@H]3CC[C@H]12" ?
Output: -0.314

Task: Item under review: "[N-]=[N+]=NCc1ccccc1[C@@H]1OC(c2ccc(OCCCO)cc2)=N[C@]1(Cc1ccccc1)C(=O)N1CCOCC1" . Reported z-score?
Output: -2.03

Task: // z-score lookup, key: "C=C(/C(=C/C[C@@H](OC(=O)c1ccncc1)c1ccc(OCCO)cc1)c1cnc2ccccc2c1)C(C)C"
Output: -3.18

---

Assay: small-molecule microarray binders of probe aEGFR, primary screen, biochemical, biotinylated probe, 635/667 nm fluorescence (AID 1097);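 further: probe is a biotinylated anti-EGFR antibody binding compounds printed on slides; score combines fluorescence near 667 nm and signal to noise of each spot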
Conditions: higher = more signal
Field: composite z-score. Provide a value for each of the compounds that follow.
Respond with the number and no other words.

Task: // query composite z-score value for entry "CC(=O)OC[C@H]1O[C@@H](ON=C[C@@H](C)[C@H](OCc2ccccc2)C(C)C)[C@H](OC(C)=O)[C@@H](OC(C)=O)[C@@H]1OC(C)=O"
Output: 0.0359

Task: Given the compound "CC(=O)OC[C@H]1O[C@H](CC=NOC[C@@H](C)[C@H](OCc2ccccc2)C(C)C)C=C[C@@H]1OC(C)=O" , what is its reported composite z-score?
Output: -0.0873

Task: Would you mind telling me what composite z-score value was observed for "COc1ccc(O[C@H]2C=C[C@@H](c3ccccc3)O[C@@H]2CON=C[C@@H](C)[C@H](OCc2ccccc2)C(C)C)cc1" ?
Output: -0.241

Task: Fill in: composite z-score of Cc1ccc(C2CC=C(C(=O)O)CN2S(=O)(=O)c2ccc(C)cc2)cc1 (stereo not drawn) is ___
Output: -0.071

Task: Requested read-out: composite z-score. Entry: "CC(CCN1CCc2nc(-c3ccccc3)c(-c3ccccc3)cc2C1)=NOC[C@@H](C)[C@H](OCc1ccccc1)C(C)C"
Output: -0.25

Task: I have this compound here, "O=C1[C@H]2[C@H]3[C@H](O)[C@H](O)CC(=NOCc4ccccc4)[C@H]3CC[C@H]2C(=O)N1c1ccc(F)cc1F" , and I need its recorded composite z-score.
Output: -0.0936

Task: I am curious: what composite z-score value has been reported for "CC=CC1=C(CO)[C@H](O)[C@H]2O[C@H]2[C@H]1O" ?
Output: -0.0382

Task: // returns reported composite z-score for input "O=C1C2=CC[C@H]3C(=O)N(Cc4ccc5c(c4)OCO5)C(=O)[C@H]3[C@H]2[C@H](O)[C@@H]2O[C@H]12"
Output: 0.0083

Hey, just so you know, these numbers are from PubChem BioAssay.
